Assay: Pharmacokinetic determination in SD rats (plasma, LC/MS/MS)
Assay type: in vivo
Recorded conditions: male, plasma; SD rat, iv, 1 mg/kg
Procedure: Test purpose: The following method is used to determine the pharmacokinetics of the compounds of the present invention. […] The liquid-liquid extraction method was used to process the samples for chromatographic separation. On a triple quadrupole tandem mass spectrometer, quantitative analysis was performed using multiple reactive ion monitoring (MRM), and the concentration were calculated using instrument quantitative software. […]

Compound	Cmax, ng/mL
O=c1cnn(-c2cc(Cl)c(Oc3ccc(=O)n(Cc4ccccc4)c3)c(Cl)c2)c(=O)[nH]1 [Example 29]	8920
CC(C)c1cc(Oc2c(Cl)cc(-n3nc(C#N)c(=O)[nH]c3=O)cc2Cl)n[nH]c1=O [MGL3196, reference compound]	5990
COC(=O)c1nn(-c2cc(Cl)c(Oc3ccc(=O)n(Cc4ccccc4)c3)c(Cl)c2)c(=O)[nH]c1=O [Example 16]	17300
